System: wheat germ agglutinin (Triticum aestivum), Alexa647-labelled
test summary: Alexa647-WGA lectin binding to printed small molecules – biochemical, small-molecule microarray, 635/667 nm fluorescence, artefact control for SMM control-protein annotation, profiling panel (AID 1140);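 further: score merges 667 nm feature emission with signal to noise over triplicate slides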
condition info: WGA-A647 binding, 635 nm fluorescence, higher = more signal
Rule: True for composite z-score not less than 0.7, False for anything less.

State whether the measured composite z-score reaches 0.7, counting equality as reaching it, for CC(=O)NCCCC[C@@H]1NC(=O)[C@H]2C[C@@H](C(=O)O)[C@@H](c3ccc(O)cc3)N2C1=O
False

State whether the measured composite z-score reaches 0.7, counting equality as reaching it, for CO[C@H]1O[C@H](CO)[C@@H](OC(=O)Nc2ccccc2)[C@@H]2OC(=O)[C@@H](Cc3ccc4ccccc4c3)C/C=C/C[C@H](Cc3ccc4ccccc4c3)C(=O)O[C@@H]12
True

State whether the measured composite z-score reaches 0.7, counting equality as reaching it, for COCC(=C=CC[C@H](O)c1cccc(OCCO)c1)C[C@H](O)c1cc(Cl)cc(Cl)c1O
False

State whether the measured composite z-score reaches 0.7, counting equality as reaching it, for COc1ccc(NN2C(C(O)c3ccc(N(C)C)cc3)C=CC3C(=O)N(C4CCCCC4)C(=O)C32)cc1 (centres undefined)
False

State whether the measured composite z-score reaches 0.7, counting equality as reaching it, for C=CC[C@]1(C(=O)N2CCOCC2)N=C(c2ccc(OCCCO)cc2)O[C@H]1c1ccccc1N=[N+]=[N-]
True

State whether the measured composite z-score reaches 0.7, counting equality as reaching it, for COc1cc(CO)cc(I)c1O[C@H]1C=C(C(=O)NCCO)C[C@@H](NC[C@@H]2CCCO2)[C@@H]1O
False

State whether the measured composite z-score reaches 0.7, counting equality as reaching it, for COC(=O)[C@@]1(Cc2ccc(F)cc2)[C@H]2c3cc(C(=O)N(C)C)n(Cc4cc(C)n(C)n4)c3C[C@H]2CN1C(=O)c1ccccc1
False

State whether the measured composite z-score reaches 0.7, counting equality as reaching it, for O=C1NC(=O)C2C1C=CC(C(O)c1ccc(-c3ccccc3)s1)N2Nc1ccc(Cl)cc1Cl (centres undefined)
True

State whether the measured composite z-score reaches 0.7, counting equality as reaching it, for COc1ccccc1CN1C(=O)c2ccccc2[C@@H](C(=O)NCc2ccccc2)[C@@H]1c1ccc(CO)cc1
False

State whether the measured composite z-score reaches 0.7, counting equality as reaching it, for O=C1C2C=CC(C(O)c3ccc(-c4ccccc4)s3)N(Nc3ccccc3)C2C(=O)N1c1ccccc1 (centres undefined)
True

State whether the measured composite z-score reaches 0.7, counting equality as reaching it, for NCCCCCNC(=O)[C@H]1C[C@H]2C(=O)N[C@@H](Cc3ccccc3)C(=O)N2[C@H]1c1cccc(OCCO)c1
True

State whether the measured composite z-score reaches 0.7, counting equality as reaching it, for C=CCN1C(=O)[C@]2(Cc3ccccc3)N=C(c3ccc(OCCCO)cc3)O[C@@H]2c2ccccc21
False

###

test summary: optical density change of DRC41 E. coli – strain DRC41, OD650, 24 h, E. coli filamentation project, primary screen (AID 1093);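 further: MC1000 strain lacking acrAB efflux and sulA so SOS filamentation is blocked; test concentration not given here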
condition info: E. coli DRC41 growth, higher = more signal, called active from +8 up or from −8 down
parameter measured: z-score
Answers are plain numbers.

# molecule, z-score
records = [
    ("CC1CC/C=C\\[C@H]2OC34C=CCN(Cc5ccccc5)C(=O)[C@H]3N(C(C)CO)C(=O)[C@@H]4C2C(=O)O1 (stereo not given in full)", 0.524),
    ("CN(C)CCCC[C@@H]1NC(=O)[C@H]2C[C@@H](C(=O)NCCCCCN)[C@@H](c3cccc(OCCO)c3)N2C1=O", 1.04),
    ("O=C(NC1CC1)[C@@H]1c2ccccc2C(=O)N(Cc2cc(F)cc(C(F)(F)F)c2)[C@H]1c1ccc(CO)cc1", -0.213),
    ("COc1ccc([Si](C)(C)[C@H]2[C@H](CC(=O)N3CCC[C@H]3CO)O[C@@]3(C(=O)N(Cc4cccc(N5CCOC5=O)c4)c4ccccc43)[C@@H]2C)cc1", 1.78),
    ("NCCCCCCNC(=O)[C@H]1C[C@H]2C(=O)N[C@@H](Cc3ccccc3)C(=O)N2[C@H]1c1cccc(OCCO)c1", 0.524),
]

Give one value of z-score per listed molecule.
1. [N-]=[N+]=NCc1ccccc1[C@H]1OC(c2ccc(OCCCO)cc2)=N[C@@]1(Cc1ccccc1)C(=O)N1CCCCC1
2. C=C(C)[C@@H]1CC=C(C(O)C2C=CC3C(=O)NC(=O)C3N2Nc2ccc(Cl)cc2Cl)CC1 (stereo not given in full)

1.56
-2.91
